molecular target: Protein cereblon/Tyrosine-protein kinase BTK (Homo sapiens, UniProt Q06187+Q96SW2); assay: PROTAC activity at BTK/CRBN protein protein interaction in human JeKo-1 cell assessed as degradation of BTK incubated for 17 hrs measured by Western blot analysis; assay type: cell-based
Sequence (Q06187 whole entry): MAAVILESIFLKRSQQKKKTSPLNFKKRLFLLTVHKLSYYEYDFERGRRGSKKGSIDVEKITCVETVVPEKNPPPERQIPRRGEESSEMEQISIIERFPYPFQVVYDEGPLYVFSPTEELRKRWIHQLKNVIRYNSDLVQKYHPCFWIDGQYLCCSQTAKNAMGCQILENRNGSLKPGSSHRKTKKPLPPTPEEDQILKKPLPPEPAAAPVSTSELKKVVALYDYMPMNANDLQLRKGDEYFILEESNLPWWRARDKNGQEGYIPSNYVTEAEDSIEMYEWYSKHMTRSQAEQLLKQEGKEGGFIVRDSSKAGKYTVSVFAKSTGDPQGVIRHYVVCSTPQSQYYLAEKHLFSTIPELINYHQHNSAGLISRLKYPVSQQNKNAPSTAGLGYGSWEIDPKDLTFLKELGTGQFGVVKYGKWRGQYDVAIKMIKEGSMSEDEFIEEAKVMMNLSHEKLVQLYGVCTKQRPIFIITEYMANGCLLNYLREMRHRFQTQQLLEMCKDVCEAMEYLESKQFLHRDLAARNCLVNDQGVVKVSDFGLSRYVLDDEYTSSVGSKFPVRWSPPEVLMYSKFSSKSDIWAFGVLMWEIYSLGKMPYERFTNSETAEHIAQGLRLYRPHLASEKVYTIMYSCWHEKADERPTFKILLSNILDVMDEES
Sequence (Q96SW2 whole entry): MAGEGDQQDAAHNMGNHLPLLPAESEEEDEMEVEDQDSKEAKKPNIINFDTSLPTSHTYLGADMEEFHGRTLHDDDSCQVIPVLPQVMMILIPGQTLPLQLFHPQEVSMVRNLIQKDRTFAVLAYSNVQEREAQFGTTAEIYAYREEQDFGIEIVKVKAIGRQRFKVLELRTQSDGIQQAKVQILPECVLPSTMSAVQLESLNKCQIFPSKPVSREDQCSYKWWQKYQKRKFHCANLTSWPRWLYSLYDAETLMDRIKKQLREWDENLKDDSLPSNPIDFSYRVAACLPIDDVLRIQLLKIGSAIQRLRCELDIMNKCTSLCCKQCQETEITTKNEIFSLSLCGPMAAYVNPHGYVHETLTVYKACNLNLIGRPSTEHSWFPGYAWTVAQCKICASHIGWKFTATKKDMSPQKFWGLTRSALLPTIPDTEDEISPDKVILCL
Quantity: DC50 (nM)

Cn1cc(-c2ccnc(N3CCn4c(cc5c4CC(C)(C)C5)C3=O)c2CO)cc(Nc2ccc(N3CCN(C(=O)CCCCCCOCCOCC(=O)Nc4cccc5c4C(=O)N(C4CCC(=O)NC4=O)C5=O)CC3)cn2)c1=O (stereo not drawn) :: 7.2

I: C[C@H]1CN(C(=O)CNc2cccc3c2C(=O)N(C2CCC(=O)NC2=O)C3=O)CCN1c1ccc(Nc2cc(-c3ccnc(N4CCn5c(cc6c5CC(C)(C)C6)C4=O)c3CO)cn(C)c2=O)nc1 (stereo partly drawn)
II: Cn1cc(-c2ccnc(N3CCn4c(cc5c4CC(C)(C)C5)C3=O)c2CO)cc(Nc2ccc(N3CCN(CCCCCCOCCOCC(=O)Nc4cccc5c4C(=O)N(C4CCC(=O)NC4=O)C5=O)CC3)cn2)c1=O (stereo not drawn)
I'm curious, which of these has a smaller DC50 number: I or II ? Lab log: write the label of the selected item as the result.
I

* * *

target: Protein cereblon/Tyrosine-protein kinase BTK (Homo sapiens, UniProt Q06187+Q96SW2); test: PROTAC activity at BTK/CRBN protein protein interaction in human JeKo-1 cell assessed as degradation of BTK incubated for 17 hrs measured by Western blot analysis; type: cell-based
Quantity: DC50 (nM)

P: C[C@H]1CN(C(=O)CNc2cccc3c2CN(C2CCC(=O)NC2=O)C3=O)CCN1c1ccc(Nc2cc(-c3ccnc(N4CCn5c(cc6c5CC(C)(C)C6)C4=O)c3CO)cn(C)c2=O)nc1 (stereo partly drawn)
Q: C[C@H]1CN(C(=O)COc2cccc3c2C(=O)N(C2CCC(=O)NC2=O)C3=O)CCN1c1ccc(Nc2cc(-c3ccnc(N4CCn5c(cc6c5CC(C)(C)C6)C4=O)c3CO)cn(C)c2=O)nc1 (stereo partly drawn)
R: C[C@H]1CN(C(=O)CCCCCCCCCNc2cccc3c2C(=O)N(C2CCC(=O)NC2=O)C3=O)CCN1c1ccc(Nc2cc(-c3ccnc(N4CCn5c(cc6c5CC(C)(C)C6)C4=O)c3CO)cn(C)c2=O)nc1 (stereo partly drawn)
Please put the entries in order of rising DC50. Return value: ordered labels per request.
Q, P, R
(Q: 3.1 nM, P: 4.6 nM, R: 32.1 nM)

* * *

target: Protein cereblon/Tyrosine-protein kinase BTK (Homo sapiens, UniProt Q06187+Q96SW2); assay: PROTAC activity at BTK/CRBN protein protein interaction in human Ramos cell assessed as degradation of BTK incubated for 17 hrs measured by Western blot analysis; assay type: cell-based
Quantity: DC50 (nM)

C[C@H]1CN(C(=O)CCCCCCCCCNc2cccc3c2C(=O)N(C2CCC(=O)NC2=O)C3=O)CCN1c1ccc(Nc2cc(-c3ccnc(N4CCn5c(cc6c5CC(C)(C)C6)C4=O)c3CO)cn(C)c2=O)nc1 (stereo not given in full) :: 31.2
C[C@H]1CN(CCCCCCOCCOCC(=O)Nc2cccc3c2C(=O)N(C2CCC(=O)NC2=O)C3=O)CCN1c1ccc(Nc2cc(-c3ccnc(N4CCn5c(cc6c5CC(C)(C)C6)C4=O)c3CO)cn(C)c2=O)nc1 (stereo not given in full) :: 7

A: C[C@H]1CN(C(=O)CCOCCOCCNc2cccc3c2C(=O)N(C2CCC(=O)NC2=O)C3=O)CCN1c1ccc(Nc2cc(-c3ccnc(N4CCn5c(cc6c5CC(C)(C)C6)C4=O)c3CO)cn(C)c2=O)nc1 (stereo not given in full)
B: Cn1cc(-c2ccnc(N3CCn4c(cc5c4CC(C)(C)C5)C3=O)c2CO)cc(Nc2ccc(N3CCN(C(=O)CCCCCCOCCOCC(=O)Nc4cccc5c4C(=O)N(C4CCC(=O)NC4=O)C5=O)CC3)cn2)c1=O (stereo not given)
Hi there! Just curious which has the higher DC50 between A and B . I would appreciate it if you answered with the label of your choice.
B
(B: 4 nM, A: 1.3 nM)

* * *

target: Protein cereblon/Tyrosine-protein kinase BTK (Homo sapiens, UniProt Q06187+Q96SW2); assay: PROTAC activity at BTK/CRBN protein protein interaction in human Ramos cell assessed as degradation of BTK incubated for 17 hrs measured by Western blot analysis; type: cell-based
Quantity: DC50 (nM)

P: C[C@H]1CN(C(=O)COc2cccc3c2C(=O)N(C2CCC(=O)NC2=O)C3=O)CCN1c1ccc(Nc2cc(-c3ccnc(N4CCn5c(cc6c5CC(C)(C)C6)C4=O)c3CO)cn(C)c2=O)nc1 (some centres undefined)
Q: C[C@H]1CN(C(=O)CCCCCCOCCOCC(=O)Nc2cccc3c2C(=O)N(C2CCC(=O)NC2=O)C3=O)CCN1c1ccc(Nc2cc(-c3ccnc(N4CCn5c(cc6c5CC(C)(C)C6)C4=O)c3CO)cn(C)c2=O)nc1 (some centres undefined)
Hi there, can you help? I need to know whether P or Q has lower measured DC50. Return value: the label identifying the chosen record.
P
(P: 1.7 nM, Q: 6.6 nM)

P: C[C@H]1CN(C(=O)CNc2ccc3c(c2)C(=O)N(C2CCC(=O)NC2=O)C3=O)CCN1c1ccc(Nc2cc(-c3ccnc(N4CCn5c(cc6c5CC(C)(C)C6)C4=O)c3CO)cn(C)c2=O)nc1 (some centres undefined)
Q: C[C@H]1CN(C(=O)CNc2cccc3c2CN(C2CCC(=O)NC2=O)C3=O)CCN1c1ccc(Nc2cc(-c3ccnc(N4CCn5c(cc6c5CC(C)(C)C6)C4=O)c3CO)cn(C)c2=O)nc1 (some centres undefined)
Return label of the item with the larger DC50. Candidates: P , Q . // respond with label for picked entry
Q
(Q: 3.6 nM, P: 0.9 nM)
